Source of measurements: paper PMC5655499

B1: SNAP25 15-mer peptide (wild type) containing the zDABM [not stated] / His6-tagged AR domain (residues 51–288) of zDHHC17 [human] (parent)
chain 1: THIDDYSTWDIVKATQYGIYERCRELVEAGYDVRQPDKENVTLLHWAAINNRIDLVKYYISKGAIVDQLGGDLNSTPLHWATRQGHLSMVVQLMKYGADPSLIDGEGCSCIHLAAQFGHTSIVAYLIAKGQDVDMMDQNGMTPLMWAAYRTHSVDPTRLLLTFNVSVNLGDKYHKNTALHWAVLAGNTTVISLLLEAGANVDAQNIKGESALDLAKQRKNVWMINHLQEARQAKGYDN
chain 2: QDGVVASQPARVVDE

- Variants of: B1
- Test name: far-Western blotting on peptide array;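 further: PSSM score: binding signal versus wild type scaled to sum 1 per position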
- Cond: with His6-tagged AR domain (residues 51–288) of zDHHC17 [human]; ARzD17-His 500 nm in PBS-T, overnight, 4 °C
Quantity kind: screen value

biosequence="chain 2 QDGVVASQPAIVVDE [chain 2 R11I]" quantity_kind="screen value" measurement="< 0.005"
biosequence="chain 2 QDGVVASQPARDVDE [chain 2 V12D]" quantity_kind="screen value" measurement="< 0.005"
biosequence="chain 2 QDGVVASQFARVVDE [chain 2 P9F]" quantity_kind="screen value" measurement="< 0.005"
biosequence="chain 2 QDGTVASQPARVVDE [chain 2 V4T]" quantity_kind="screen value" measurement="< 0.005"
biosequence="chain 2 QDGWVASQPARVVDE [chain 2 V4W]" quantity_kind="screen value" measurement="< 0.005"
biosequence="chain 2 QDGVDASQPARVVDE [chain 2 V5D]" quantity_kind="screen value" measurement="< 0.005"

Problem: Kindly indicate its recorded screen value. Item: chain 2 QDGKVASQPARVVDE [chain 2 V4K]
Result: < 0.005

Problem: Kindly indicate its recorded screen value. Item: chain 2 QDGVWASQPARVVDE [chain 2 V5W]
Result: < 0.005

Problem: Kindly indicate its recorded screen value. Item: chain 2 QDGVVASQKARVVDE [chain 2 P9K]
Result: < 0.005

Problem: Kindly indicate its recorded screen value. Item: chain 2 QDGVTASQPARVVDE [chain 2 V5T]
Result: < 0.005
